Hello, the source for this data is ChEMBL document CHEMBL1909630, in case you need it.

Molecular target: Glucocorticoid receptor (Homo sapiens)
Sequence (P04150 whole entry): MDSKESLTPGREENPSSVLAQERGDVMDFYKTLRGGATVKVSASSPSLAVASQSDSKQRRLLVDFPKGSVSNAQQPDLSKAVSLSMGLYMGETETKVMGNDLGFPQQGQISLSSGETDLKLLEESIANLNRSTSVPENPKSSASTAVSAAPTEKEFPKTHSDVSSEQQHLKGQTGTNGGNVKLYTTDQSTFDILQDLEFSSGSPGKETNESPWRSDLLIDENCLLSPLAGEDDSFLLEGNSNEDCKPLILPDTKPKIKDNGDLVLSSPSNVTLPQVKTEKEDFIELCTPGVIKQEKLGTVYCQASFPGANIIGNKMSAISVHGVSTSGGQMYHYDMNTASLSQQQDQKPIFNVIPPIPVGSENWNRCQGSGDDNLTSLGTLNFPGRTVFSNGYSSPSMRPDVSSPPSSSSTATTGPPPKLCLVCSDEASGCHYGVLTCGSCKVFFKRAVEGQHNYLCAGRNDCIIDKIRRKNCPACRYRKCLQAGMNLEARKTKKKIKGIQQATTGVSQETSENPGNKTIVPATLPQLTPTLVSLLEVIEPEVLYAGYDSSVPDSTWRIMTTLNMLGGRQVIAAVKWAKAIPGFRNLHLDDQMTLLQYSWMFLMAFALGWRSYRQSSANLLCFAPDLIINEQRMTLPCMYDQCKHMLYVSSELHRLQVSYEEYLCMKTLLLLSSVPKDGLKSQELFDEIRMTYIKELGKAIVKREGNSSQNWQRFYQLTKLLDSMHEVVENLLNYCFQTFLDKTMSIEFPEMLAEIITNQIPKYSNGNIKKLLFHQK
Assay: Transactivation activity at glucocorticoid receptor alpha human 13D3/Huh7 cells assessed as induction of TAT activity after 4 hrs by spectrophotometry
Type: cell-based, Huh-7

>  <compound>
Cc1cccc(-c2ccc3c(n2)Oc2ccccc2[C@@H]3C(C)(C)C(=O)Nc2nncs2)c1

>  <target_entity>
Glucocorticoid receptor (Homo sapiens)

>  <EC50>
> 5 µM

$$$$
>  <compound>
CCN(C)C(=O)c1ccc(-c2ccc3c(n2)Oc2ccccc2[C@H]3C(C)(C)C(=O)Nc2nncs2)cc1Cl

>  <target_entity>
Glucocorticoid receptor (Homo sapiens)

>  <EC50>
2.4 µM

$$$$
>  <compound>
CN(C)C(=O)c1ccc(-c2ccc3c(c2)Oc2ccccc2C3C(C)(C)C(=O)Nc2nncs2)nc1 (racemic)

>  <target_entity>
Glucocorticoid receptor (Homo sapiens)

>  <EC50>
> 5 µM

$$$$
>  <compound>
CC(C)(C(=O)Nc1nncs1)[C@H]1c2ccccc2Oc2nc(-c3ccc(C(=O)N4CCCCC4)cc3)ccc21

>  <target_entity>
Glucocorticoid receptor (Homo sapiens)

>  <EC50>
> 5 µM

$$$$

---

Biological target: Glucocorticoid receptor (Homo sapiens, UniProt P04150)
Sequence (P04150 whole entry): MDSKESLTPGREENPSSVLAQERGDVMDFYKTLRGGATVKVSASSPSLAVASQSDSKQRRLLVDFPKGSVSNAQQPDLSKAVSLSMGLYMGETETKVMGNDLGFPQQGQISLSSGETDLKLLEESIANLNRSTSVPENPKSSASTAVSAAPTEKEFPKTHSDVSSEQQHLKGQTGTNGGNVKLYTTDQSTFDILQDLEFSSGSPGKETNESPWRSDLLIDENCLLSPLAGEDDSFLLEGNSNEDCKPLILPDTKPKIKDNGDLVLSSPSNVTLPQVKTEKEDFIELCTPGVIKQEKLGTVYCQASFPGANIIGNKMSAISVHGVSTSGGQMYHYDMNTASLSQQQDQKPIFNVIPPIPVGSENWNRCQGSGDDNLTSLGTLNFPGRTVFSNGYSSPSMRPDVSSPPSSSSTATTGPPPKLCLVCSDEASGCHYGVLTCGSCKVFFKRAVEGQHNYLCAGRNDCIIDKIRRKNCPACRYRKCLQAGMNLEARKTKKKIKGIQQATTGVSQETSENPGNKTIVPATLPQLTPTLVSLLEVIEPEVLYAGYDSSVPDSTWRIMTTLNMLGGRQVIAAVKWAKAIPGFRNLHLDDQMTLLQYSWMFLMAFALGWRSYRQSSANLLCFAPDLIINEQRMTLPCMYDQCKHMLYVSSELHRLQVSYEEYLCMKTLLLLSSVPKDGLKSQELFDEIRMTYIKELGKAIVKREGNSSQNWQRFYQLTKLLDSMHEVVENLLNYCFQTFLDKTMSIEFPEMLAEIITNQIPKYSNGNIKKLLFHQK
Test: Transrepression activity at glucocorticoid receptor alpha in IL-1beta-stimulated human A549 cells assessed as inhibition of NFkappaB-dependent E-selectin transcription by luciferase reporter gene assay
Assay type: cell-based
pEC50: −log10 of the molar value.
Param threshold (7) applies to pEC50; output Satisfied when value >= threshold, Not satisfied when value < threshold.

>  <compound_string>
CC(C)(C(=O)Nc1nncs1)[C@H]1c2ccccc2Oc2nc(-c3ccc(C(=O)O)cc3)ccc21

>  <target_entity>
Glucocorticoid receptor (Homo sapiens, UniProt P04150)

>  <discrete_label>
Not satisfied

$$$$
>  <compound_string>
CN(C)C(=O)c1ccc(-c2ccc3c(n2)Oc2ccccc2[C@H]3C(C)(C)C(=O)Nc2nncs2)cc1F

>  <target_entity>
Glucocorticoid receptor (Homo sapiens, UniProt P04150)

>  <discrete_label>
Satisfied

$$$$
>  <compound_string>
CN(C)c1ccc(-c2ccc3c(n2)Oc2ccccc2[C@@H]3C(C)(C)C(=O)Nc2nncs2)cc1

>  <target_entity>
Glucocorticoid receptor (Homo sapiens, UniProt P04150)

>  <discrete_label>
Satisfied

$$$$
>  <compound_string>
Cc1ccccc1-c1ccc2c(n1)Oc1ccccc1[C@@H]2C(C)(C)C(=O)Nc1nncs1

>  <target_entity>
Glucocorticoid receptor (Homo sapiens, UniProt P04150)

>  <discrete_label>
Not satisfied

$$$$
>  <compound_string>
CCN(C)C(=O)c1ccc(-c2ccc3c(n2)Oc2ccccc2[C@H]3C(C)(C)C(=O)Nc2nncs2)cc1

>  <target_entity>
Glucocorticoid receptor (Homo sapiens, UniProt P04150)

>  <discrete_label>
Satisfied

$$$$
>  <compound_string>
COc1ccc(-c2ccc3c(n2)Oc2ccccc2[C@H]3C(C)(C)C(=O)Nc2nncs2)cc1

>  <target_entity>
Glucocorticoid receptor (Homo sapiens, UniProt P04150)

>  <discrete_label>
Not satisfied

$$$$
